Tested on: HL-60
Assay: Induction of cytosolic calcium increase in human HL60 cells at 1 to 5 uM by Fluo-4-AM dye based fluorescence assay
Type: functional, cell-based
Activity calls are given as the source filed them. The rule behind the calls is not given here.
Endpoint Label: Activity

Q: Which Activity reading was recorded for the molecule C#CCOC(=O)CC1C(C(=O)OCC#C)=C(N)Oc2ccc(-c3cncc(C)c3)cc21 (centres undefined) ?
A: Active

Q: Let us now turn to C#CCOC(=O)CC1C(C(=O)OCC#C)=C(N)Oc2ccc(-c3ccc(C)nc3)cc21 (centres undefined)
A: inactive

Q: # repeat for C#CCOC(=O)CC1C(C(=O)OCC#C)=C(N)Oc2ccc(-c3ccnc(C)c3)cc21 (centres undefined)
A: Active

Q: Similarly, C#CCOC(=O)CC1C(C(=O)OCC#C)=C(N)Oc2ccc(-c3ccncc3)cc21 (centres undefined) ?
A: inactive
